TESTED ON: hKV7.1/KCNE1 (KV7.1) (Homo sapiens)
Construct: gene KCNQ1; with KCNE1
PROTOCOL: two-electrode voltage clamp in Xenopus oocytes, V50 shift; mutagenesis (R228Q abolishes V50 shift); also active on KV7.[…] alone (EC50 […])
Type: cell-based
pEC50: −log10 of the molar value.
MEASURED METRIC: pEC50

{"SMILES STRING": "CCCCC/C=C\\C/C=C\\C/C=C\\C/C=C\\CCCC(=O)N[C@@H](CO)C(=O)O", "TESTED ON": "hKV7.1/KCNE1 (KV7.1) (Homo sapiens)", "REPORTED RESULT": 5.05}

----------
TESTED ON: hKV7.1/KCNE1 (KV7.1) (Homo sapiens)
Construct: gene KCNQ1; with KCNE1
PROTOCOL: two-electrode voltage clamp in Xenopus oocytes, V50 shift
Assay type: cell-based

{"COMPOUND": "CC/C=C\\C/C=C\\C/C=C\\C/C=C\\C/C=C\\C/C=C\\CCC(=O)NC(CO)C(=O)O (stereo not shown) [DOC-S]", "EC50 [µM]": 5}

----------
TESTED ON: hKV7.1/KCNE1 (KV7.1) (Homo sapiens, UniProt P51787)
Construct: gene KCNQ1; with KCNE1
PROTOCOL: two-electrode voltage clamp in Xenopus oocytes, V50 shift (current amplitude EC50 […]); site mutagenesis supported by MD
Assay type: cell-based

{"COMPOUND": "CCCCC/C=C\\C/C=C\\CCCCCCCC(=O)NC(CO)C(=O)O (stereo not shown) [LIN-S]", "TESTED ON": "hKV7.1/KCNE1 (KV7.1) (Homo sapiens, UniProt P51787)", "EC50": "12 µM"}
